binders and their reported percent of cells right of the dashed gate line
Subject Of Test: SARS-CoV-2 S protein trimer expressed on human A431 cells (SARS-CoV-2, UniProt P0DTC2 14-1273)
Test Summary: flow cytometry on A431 cells expressing SARS-CoV-2 S (A431-CoV-2-S)
Endpoint: percent of cells right of the dashed gate line

Binder | Endpoint Result
1H6 VHH-hFc (Fc fusion, also called 1H6-hFc; NCI-CoV-1H6 VHH-hFc fusion protein) AVQLVDSGGGSVQAGGSLNLSCVASGTTLRNGCMAWFRQVPGKEREVVAIIIRATSYTDYADSVKGRFTISQDNAKNTVYLQMKSLTPEDTATYYCAATLYRVNCAKREFDKWGQGTQVTVSS | 99.5%
2F7 VHH-hFc (Fc fusion, also called 2F7-hFc; NCI-CoV-2F7 VHH-hFc fusion protein) QVKLEESGGGSVQSGGSLRLSCTVSRDTNTNINRCMGWFRQAPGKGLETVATINRDGTNTYYTDAVKGRFTISQDNVKNTVYLQMNNLTPEDTGTYICNAMGRGSGSRCDNWDPNYWGQGTQVTVSS | 99.3%
7A3 VHH-hFc (Fc fusion, also called 7A3-hFc; NCI-CoV-7A3 VHH-hFc fusion protein) QVQLVESGGGSVQPGGSLRLSCVVSGYTSSSRYMGWFRQVPGKGLEWVSGIKRDGTNTYYADSVKGRFTISQDNAKNTVYLQMNSLKPEDTAMYYCAAGSWYNQWGYSMDYWGKGTQVTVSS | 99.5%
1B5 VHH-hFc (Fc fusion, also called 1B5-hFc; NCI-CoV-1B5 VHH-hFc fusion protein) DVQLVESGGGSVQAGGSLRLSCTGSRYTYSTYCMGWFRQAPGKEEEAVAIINSGGGEPYYGDSVKGRFTISQDRAKNTVYLQMDGLQPDDTAIYYCVAADSHNSRCYLGRSYVNYWGQGTQVTVSS | 99.1%

Origin of the recorded values: patent US20230391852A1
